# melting point per record follows

# input Which melting point is listed for N#CNC1=NC(c2ccc(OC(F)(F)F)cc2)(c2cccc(-c3cncnc3)c2)C2=NCCCN12 (stereo not given) ?
# output 227 to 231 °C

# input Which melting point is listed for O=C(c1cccc(Cl)c1)N1CCCN(CC2=Nc3cccc4c(=O)[nH]nc(c34)N2)CC1 ?
# output 147 to 149 °C

# input Which melting point is listed for Cc1c(-c2ccccc2)oc(C(=O)O)cc1=O ?
# output 218 °C

# input Which melting point is listed for Oc1ccc(Nc2ncc3nc(Nc4c(F)cc(F)cc4F)n(C4CCCC4)c3n2)cn1 ?
# output 257 to 260 °C

# input Which melting point is listed for Nc1ccc(OCC(=O)OCCOC(=O)COc2ccc(N)cc2)cc1 ?
# output 124 to 126 °C

* * *

# melting point per record follows

Example compounds with recorded melting point:
# input Which melting point is listed for NCCCCc1cccc(C2=NNC(=O)CC2)c1 ?
# output 128 to 130 °C

# input Which melting point is listed for CC(=O)OC1C(OC(=O)C=Cc2ccccc2)C=C(C)C(=O)CC1(C)C (centres undefined) ?
# output 138 to 139 °C

# input Which melting point is listed for O=C(O)C1CC1(C(=O)O)c1ccc([N+](=O)[O-])cc1 (centres undefined) ?
# output 138 to 144 °C

Continuing:
# input Which melting point is listed for Cn1cncc1C(O)c1ccc2c(c1)c(-c1cccc(Cl)c1)nc1nnnn12 (centres undefined) ?
# output 190 °C

# input Which melting point is listed for CN1CC(CCCl)Oc2ccc([N+](=O)[O-])cc2C1=S (centres undefined) ?
# output 153 to 155 °C

# input Which melting point is listed for CCN(CC)c1ccc(/C=C/C(=O)CC(=O)/C=C/c2ccc(O)c(OC)c2)c(O)c1 ?
# output 89 to 92 °C

# input Which melting point is listed for CC(C)(NC(=O)c1nnc2ccc(NCCCN3CCC(OC(c4ccccc4)c4ccccc4)CC3)nn12)C(=O)O ?
# output 191 to 193 °C

# input Which melting point is listed for O=C(O)CCCC(=O)N1CCC(C2c3ccccc3C=Cc3ccccc32)CC1 ?
# output 180 to 186 °C

# input Which melting point is listed for Cc1ccccc1C(=O)Nc1ccc(C(=O)N2CCCC(OCCO)c3cc(Cl)ccc32)cc1 (centres undefined) ?
# output 185 to 188 °C

* * *

measured parameter: melting point (°C)

A: Cc1ccnc(NC#N)n1
B: O=C(Nc1cccc(I)c1)C1CC1
# input Param pair: A , B . Output: the one whose melting point is numerically greater. When you have decided, please share the label of that item.
# output A

* * *

# melting point per record follows

# input Which melting point is listed for CS(=O)(=O)Nc1ccc(NC(=O)CCl)cc1 ?
# output 174 to 177 °C

# input Which melting point is listed for CCOC(=O)Cc1c(C)nc(Nc2nc3cc(C)c(C)cc3[nH]2)nc1O ?
# output > 300 °C

# input Which melting point is listed for CCOc1c(C)c(N2CCN(c3ccc(OC)c(C)c3)CC2)c(C)c2c1OC(C)C2 (stereo not given) ?
# output 80 to 83 °C

# input Which melting point is listed for COc1cccc(-c2ccc(NC(=O)OC(C)(C)C)c([N+](=O)[O-])c2)c1 ?
# output 104 to 107 °C

# input Which melting point is listed for CCn1c(=O)c2c(nc(/C=C/c3ccc(OCCCCN=[N+]=[N-])cc3)n2C)n(CC)c1=O ?
# output 158 to 159 °C

# input Which melting point is listed for COc1ccc(C(=O)c2c(N)sc3c2CCC3)c2ccccc12 ?
# output 214 to 215 °C

# input Which melting point is listed for Cc1c(N)c([N+](=O)[O-])cc2c(=O)c(C(=O)O)cn(-c3cc(N)c(F)cc3F)c12 ?
# output > 280 °C

# input Which melting point is listed for COc1ccc(CNC(=O)c2cc([N+](=O)[O-])ccc2N)cc1 ?
# output 189 to 191 °C

Continuing:
# input Which melting point is listed for N#CCC(=O)NCc1ccc(Cl)c(Cl)c1 ?
# output 144 to 145 °C

# input Which melting point is listed for Cn1c(-c2cccnc2)cc(=O)n(C)c1=O ?
# output 120 to 122 °C
